All values here come from patent US20260242415A1.

# System: spike protein of the SARS-CoV-2 virion
# Assay type: binding
Assign Fulfilled to entries whose enrichment in final round (% of total sequences) meets or exceeds 8%; assign Not fulfilled to the rest.

Please check the record SIENYLKKLGYVLLW [SARS2D4] and state if its enrichment in final round (% of total sequences) is at or above 8%.
Not fulfilled

Please check the record IILYRTYFQPFRWEF [SARS1spikeL2] and state if its enrichment in final round (% of total sequences) is at or above 8%.
Not fulfilled

Please check the record TSQICQELDALGDWI [SARS1spikeD2] and state if its enrichment in final round (% of total sequences) is at or above 8%.
Not fulfilled

Please check the record NARILQRWFPELAHL [SARS2D1] and state if its enrichment in final round (% of total sequences) is at or above 8%.
Fulfilled

Please check the record SVVFSADGRHYYWDS [SARS2L3] and state if its enrichment in final round (% of total sequences) is at or above 8%.
Not fulfilled

More entries:
Please check the record IVLHDGLRSATVLWI [SARS2R3L2] and state if its enrichment in final round (% of total sequences) is at or above 8%.
Not fulfilled

Please check the record LVFHDNVYTVTVVHV [SARS2R3L1] and state if its enrichment in final round (% of total sequences) is at or above 8%.
Not fulfilled

Please check the record CFFWYENYYTAITVT [SARS1spikeL3] and state if its enrichment in final round (% of total sequences) is at or above 8%.
Not fulfilled

Please check the record LIWYQSYYQTEVVWF [SARS1spikeL1] and state if its enrichment in final round (% of total sequences) is at or above 8%.
Fulfilled

Please check the record VIWHPDRWTSVVLQI [SARS2L2] and state if its enrichment in final round (% of total sequences) is at or above 8%.
Fulfilled
